This collection of values is drawn from the RNAGym collection of RNA variant scans (doi:10.7554/elife.80360).

B1: HDV Ribozyme (parent)
chain: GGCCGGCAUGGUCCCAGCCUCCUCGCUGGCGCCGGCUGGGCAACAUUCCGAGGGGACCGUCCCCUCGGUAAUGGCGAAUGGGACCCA

# Variants of: B1
# measurementProtocol: self-cleavage, relative activity (ratio to wild type); higher = more cleavage; co-transcriptional
parameter: self-cleavage

Solved cases below.
>>> print(df.to_string())
                              residuestring      parameter  valuereported
0  GGCCGGCAUGGUCCCAGCCUCCUCGCUGGCGCCGGCUGGGCAACAUUUCGAGGGGACCGUCCCCUCGGUAAGGGCGAAUGGGACCCA  self-cleavage          0.639
1  GGCCGGCAUGGUCCCAGCCUCCUCGCUGGCGCCGGCUGGGCAACAUUCCGGGGGGACCGUCCCCUCGGUAAUCGCGAAUGGGACCCA  self-cleavage          0.575
2  GGCCGGCAUGGUCCCAGCCUCCUCGCUGGCGCCGGCUGGGCAACAUUCCGAGGGGACCAUCCCCGCGGUAAUGGCGAAUGGGACCCA  self-cleavage          0.801
3  GGCCGGCAUGGUCCCAGCCUGCUCGCUGGCGCCGGCUGGGCAACAUUCCGAGGGGACCGUCCCCUCGGUACUGGCGAAUGGGACCCA  self-cleavage         0.0449
4  GGCCGCCAUGGUCCCAGCCUCCUCGCUGGCGCCGGCUGGGCAACAUUCCGAGGGGACCGUCCCCUCGGUAAUGGCGAGUGGGACCCA  self-cleavage              0
5  GGCCGGCAUGGUCCCAGCCUCCUCGCUGGCGCCGGCUGGGCGACAUGCCGAGGGGACCGUCCCCUCGGUAAUGGCGAAUGGGACCCA  self-cleavage            0.7
6  GGCCGGCAUGGUCCCAGCCUCCUCGCUGGCGCCGGCUGGGCAACAUUCCGAGGGGACCGUCCCCUCGCUAAUGGCGAACGGGACCCA  self-cleavage          0.302
7  GGCCGGCAUGGUCCCAGCCUCCUCGCUGGCGCCGGCUGGGCAACAUUCAGAGGGGACCGUCCCCUCGGUAAUGGCGCAUGGGACCCA  self-cleavage          0.252

Please give self-cleavage, item by item, for the list that follows.
1. GGCCGGUAUGGUCCCAGCCUCCUCGCUGGCGCCGGCUGGGCAACAUUCCGAGGGGACCGUCCCCUCGGGAAUGGCGAAUGGGACCCA
2. GGCCGGCAUGGUCCCAGCCUCCUCGCUGGCGCCGGCUGGGCAACAUUCCGAGGGGACCGUCCCCUCGGUAAUGGCGAACGGGACCUA
3. GGCCGGCAUGGUCCCAGCCUCCUCGCUGGCGCCGGCUGGGCAACAUCCCGAGGGGACGGUCCCCUCGGUAAUGGCGAAUGGGACCCA
4. GGCCGGCAUGGUCCCAACCUCCUCGCUGGCGCCGGCUGGGCAACAUUCCGAGGGGACCGUCCCCUCGGUAAUGGCGAAUGGGACCCG
5. GGCCGGCAUGGUCUCAGCCUCCUCGCUGGCGCCGGCUGGGCAACAUUCCGAGGGUACCGUCCCCUCGGUAAUGGCGAAUGGGACCCA

Result:
0.855
0.696
0.807
0.745
1.24

Batch request: self-cleavage for each of the following variants.
1. GGCCGGCAUGGUCCCAGCCUCCUCGCUGGCGCCGGCUGGGCAACAUUCCGAUGGGACCGUCCCCUCGGUAAUGGCGAAUGGGACCUA
2. GGCCGGCAUGGUCCCAGCCUCCUCGCUGGCGCCGGCUGGGCAACAUUCCGAGGGGACCGUCCCGUCGGUAAUGGCGAAUGGGACCCA
3. GGCCGGCAUGGUCCCAGCCGCCUCGCUGGCGCCGGCUGUGCAACAUUCCGAGGGGACCGUCCCCUCGGUAAUGGCGAAUGGGACCCA
4. GGCCGGCAUGGUCCCAGCCUCCUCGUUGGCGCCGGCUGGGCAACAUUCCGAGGGGACCGUCCCCUCGGCAAUGGCGAAUGGGACCCA
5. GGCCGGCAUGGUCCCAGCCUCCUCGCUAGCGCCGGCUGGGCAACAUUCCGAGGGGACCGUCCCCUCGGUAAUGGCAAAUGGGACCCA

Result:
[1.02, 0.954, 0.0369, 1.12, 0.0563]

State the recorded self-cleavage for every item in the following list.
1. GGCCGGCAUGGUCCCAGCCUCCUCGCUGGGGCCGGCUGGGCAACAUUCCGAGGGGACCGUCCCCUCGGUAAUGGCGAAUGGGACCCA
2. AGCCGGCAUGGUACCAGCCUCCUCGCUGGCGCCGGCUGGGCAACAUUCCGAGGGGACCGUCCCCUCGGUAAUGGCGAAUGGGACCCA
3. GGCCGGCAUGGUCCUAGCCUCCUCGCUGGCGCCGGCUGGGCAACAUUCCGAGGGGACCGUCCCCUCGGUAAUGGGGAAUGGGACCCA
4. GGCCGGCAUGGUCCCAGCCUCCUCGCUGGCGCCGGCUGGGUAAUAUUCCGAGGGGACCGUCCCCUCGGUAAUGGCGAAUGGGACCCA

Result:
1: 0.0914; 2: 0.0639; 3: 0.0665; 4: 0.516

Hi, could you look up self-cleavage for each item in my list?
1. GGCCGGCAUGGUCCCAGCCUCCUCGCUGGCGCCGGCUGGGCAACAUUCCGAGGGGACCGUCCCCUCGGUUAUGGCGAAUGUGACCCA
2. GGACUGCAUGGUCCCAGCCUCCUCGCUGGCGCCGGCUGGGCAACAUUCCGAGGGGACCGUCCCCUCGGUAAUGGCGAAUGGGACCCA
3. GGCCGGCAUGGUCCCAGCCUCCUCGCUAUCGCCGGCUGGGCAACAUUCCGAGGGGACCGUCCCCUCGGUAAUGGCGAAUGGGACCCA

Result:
0.469
0.00831
0.111

Report self-cleavage for every entry below.
1. GGCCGGCAUGGUCCCAGCCUACUCGCUGGCGCCGGCUGGUCAACAUUCCGAGGGGACCGUCCCCUCGGUAAUGGCGAAUGGGACCCA
2. GGCCGGCAUGGUCCCAGCCUCCUCGCUGGCGCCGGCCGGGCAACAUUCCGAGGAGACCGUCCCCUCGGUAAUGGCGAAUGGGACCCA
3. UGCCGGCAUGGUCCCAGCCUCCUCGCUGGCGCCGGCUGGGCAACAUUCCGAGGGGACCGUCCUCUCGGUAAUGGCGAAUGGGACCCA
4. GGCCGGCAUGGUCCCAGCCUCCUCGCUGGCUCCGGCUGGGCAACAUUCCGAGGGGACCUUCCCCUCGGUAAUGGCGAAUGGGACCCA
5. GGCCGGCAUGGUCCCAGCCUCCUCGCUGGCGCCGGCUGGGCAACAUUCCGAGGUGACCGUCCCCUCGGUUAUGGCGAAUGGGACCCA
6. GGCCGGCAUGGUCCCAGCCUCCACGCUGGCGCCGGCUGGGCAACAUUCCGAGGGGACCGUCCCCUCGGUAAUGGCGAAUGGCACCCA
7. GGCCGGCAUGGUCCCAGCCUACUCGCUGGGGCCGGCUGGGCAACAUUCCGAGGGGACCGUCCCCUCGGUAAUGGCGAAUGGGACCCA

Result:
1. 0.134
2. 1.11
3. 0.535
4. 0.617
5. 0.997
6. 0.326
7. 0.0652

Batch of 2 variants: report self-cleavage for each.
1. GGCAGGCAUGGUCCCAGCCUCCUCGCUGGCGCCGGCUGGGCAACAUUCCGAGGGGACCAUCCCCUCGGUAAUGGCGAAUGGGACCCA
2. GGCCGGAAUGGUCCCUGCCUCCUCGCUGGCGCCGGCUGGGCAACAUUCCGAGGGGACCGUCCCCUCGGUAAUGGCGAAUGGGACCCA

Result:
1: 0.346; 2: 0.499

For every item below, please supply its self-cleavage.
1. GGCCGGCAUGGUCCCAGCCUCCUCGCUGGCGCCGGCCGGGCAACAUUCCGAGGGGACCCUCCCCUCGGUAAUGGCGAAUGGGACCCA
2. GGCCGGCGUGGUCCCAGCCUCCUCGCUGGCGCCGGCUGGGCAACAUUCCGAGUGGACCGUCCCCUCGGUAAUGGCGAAUGGGACCCA
3. GCCCGGCAUGGUCCCAGCCUCCUCGCUGGCGCCGGCUGGGCAACAUUCCGAGGGGACCGUCCCCUCGGUAAUGGCCAAUGGGACCCA
4. GGCCGGCUUGGUCCCAGCCUCUUCGCUGGCGCCGGCUGGGCAACAUUCCGAGGGGACCGUCCCCUCGGUAAUGGCGAAUGGGACCCA

Result:
1.16
1.02
0.0747
0.598

Record self-cleavage per entry; entries follow.
1. GGCCGGCAUGGUCCCGGCCUCCUCGCUGGCGCCGGCUGGGCAACAUUCCGAGCGGACCGUCCCCUCGGUAAUGGCGAAUGGGACCCA
2. GGCCGGCAUGGUCCCAGCCUCCUCGCUGGCGCCGGCUGGGCAACAUUCCGAGGGGACCGUGCCCUCGGUAAUGGCGAAUGGGACCCA
3. GGCCGGCAUGGUCCCAGCCUCCUGGCUGGCGCAGGCUGGGCAACAUUCCGAGGGGACCGUCCCCUCGGUAAUGGCGAAUGGGACCCA
4. GGCCGGGAUGGUCCCAGCCUCCUCGCUGGCGCCGGCUGGGCAACAUUCCGAGGGGACCGUCCCCUCGGUAAUGGCGAAUGGGAUCCA

Result:
1: 1.11; 2: 0.986; 3: 0.244; 4: 0
